# assay.explanation: Toxicity liver stage against HepG2, at 10uM
# Type: cell-based
# Set-up: test concentration 10 uM, cell line HepG2-A16-CD81EGFP
# recorded.conditions: human, HepG2-A16-CD81EGFP cells; read-out: INHIBITION
Measured cytotoxicity at 10 µM by item
// return numeric value only (unit: %, not printed)

Cc1ncc(CN(C)C(=O)c2ccc3c(c2O)OC(C)(C)C3)s1
6.93

Prompt: Param item = Cc1ccc(NC2(C(=O)NCCCN)CCCC2)cc1 ; retrieve measured cytotoxicity at 10 µM.
Response: 1.58

Prompt: # iterate: CN1CCOCC12CCN(C(=O)C1CCC1)CC2
Response: 0.64

Prompt: # iterate: O=C(Nc1cccc(N2CCCC2)c1)N[C@H](CCO)c1ccccc1
Response: -4.52

Prompt: # iterate: O=C(Cn1nc2c(cc1=O)CCCC2)N[C@@H](Cc1ccccc1)C(=O)O
Response: 3.17

Prompt: # iterate: COc1ccc2c(c1)c(C(=O)Nc1nnn[nH]1)cn2C(C)C
Response: -57.8

Prompt: # iterate: CCCn1nnnc1CSc1nccn1Cc1ccccn1
Response: 6.24

Prompt: # iterate: CN(CC1CCCO1)c1nc(-c2cccnc2)nc2c1CCNCC2 (configuration not stated)
Response: -4.68

Prompt: # iterate: CC(C)c1n[nH]c(C2CN(C(=O)c3cc(C4CC4)[nH]n3)CCO2)n1 (configuration not stated)
Response: -5.95

Prompt: # iterate: CCc1nnc2n1CCN(C(=O)c1cnc3ccccc3n1)C2
Response: -7.7

Prompt: # iterate: CCN(CC)Cc1nc2c(o1)CN(C(=O)c1ccncc1F)C2
Response: -109

Prompt: # iterate: O=C(NCc1c(F)cccc1F)C1CN(C(=O)c2cnccn2)C1
Response: -12.2

Prompt: # iterate: CCc1noc(CN2CCC(NC(=O)c3ccc(C)s3)CC2)n1
Response: -5.04
